target: HLA-B*07:02; assay: IEDB peptide-MHC binding, purified MHC/direct/fluorescence; filed as Kd, often an IC50 or EC50 that approximates it; bounds were set here for any values at or beyond the usual limits of such assays; conditions: source organism: Burkholderia mallei
pKd: −log10 of the molar value.
ENDPOINT: pKd

### Prompt Name the reported pKd value associated with the sequence NPVDGSIWY
### Response ≤ 4.70

* * *

biological target: HLA-C*04:01; test: IEDB peptide-MHC binding, purified MHC/competitive/fluorescence; filed as Kd, often an IC50 or EC50 that approximates it; bounds were set here for any values at or beyond the usual limits of such assays; conditions: source organism: Mycobacterium tuberculosis
pKd: −log10 of the molar value.
ENDPOINT: pKd

### Prompt Name the reported pKd value associated with the sequence ALRQARAAF
### Response ≤ 5.30

* * *

target: HLA-B*15:01; assay: IEDB peptide-MHC binding, purified MHC/competitive/radioactivity; filed as Kd, often an IC50 or EC50 that approximates it; bounds were set here for any values at or beyond the usual limits of such assays; details: source organism: Dengue virus 4 Philippines/H241/1956
ENDPOINT: pKd
Please report pKd as the negative decimal logarithm of the molar concentration, giving only the number.

YLKEEQDQQY = 8.12

### Prompt Name the reported pKd value associated with the sequence KLHSGVDVFY
### Response 8.56

* * *

Form field: Kd (one value per entry).
target: HLA-A*69:01; assay: IEDB peptide-MHC binding, purified MHC/direct/fluorescence; filed as Kd, often an IC50 or EC50 that approximates it; bounds were set here for any values at or beyond the usual limits of such assays; details: source organism: Camelpox virus M-96

YERGNIIIF = ≥ 20000 nM
DLYDYITRI = 35.3 nM
YLMPYSVYI = ≤ 1 nM

Here is another sequence to look at.
### Prompt Name the reported Kd value associated with the sequence NRLKPRDFK
### Response ≥ 20000 nM

* * *

molecular target: HLA-B*73:01; experiment: IEDB peptide-MHC binding, purified MHC/direct/fluorescence; filed as Kd, often an IC50 or EC50 that approximates it; bounds were set here for any values at or beyond the usual limits of such assays; conditions: source organism: Mus musculus
ENDPOINT: pKd
Please report pKd as the negative decimal logarithm of the molar concentration, giving only the number.

### Prompt Name the reported pKd value associated with the sequence MPMKGRFPI
### Response 5.22

* * *

biological target: HLA-B*18:01; assay: IEDB peptide-MHC binding, purified MHC/competitive/fluorescence; filed as Kd, often an IC50 or EC50 that approximates it; bounds were set here for any values at or beyond the usual limits of such assays; conditions: source organism: Orthohantavirus andesense
pKd: −log10 of the molar value.
Form field: pKd (one value per entry).

NALEKALRW = ≤ 4.70

### Prompt Name the reported pKd value associated with the sequence VSANVKGNW
### Response ≤ 4.70

* * *

molecular target: HLA-A*32:01; test: IEDB peptide-MHC binding, purified MHC/competitive/radioactivity; filed as Kd, often an IC50 or EC50 that approximates it; bounds were set here for any values at or beyond the usual limits of such assays; conditions: source organism: Vaccinia virus WR
pKd: −log10 of the molar value.
So basically: pKd at 7 or higher? That is criterion met. Lower than 7? That is criterion not met.

Example entries and their recorded answers appear below.
AIIAIVFVF = criterion not met
SQVKCCHYF = criterion not met
AINNRICVM = criterion not met
ITYEKSNNI = criterion met
MLNYVDYNI = criterion met

### Prompt Textbook exercise: given the entry RQFYNANVL , state whether its pKd is greater than or equal to 7.
### Response criterion met

### Prompt Would you kindly repeat that for KTIFLSEPY ?
### Response criterion met

### Prompt Would you kindly repeat that for HTILYNNTI ?
### Response criterion met

### Prompt Would you kindly repeat that for MCIKYTACM ?
### Response criterion not met
